biological target: HCV NS3-4A serine protease (full-length NS3-4A protein) (Hepatitis C virus genotype 1a (isolate 1) (HCV)); experiment: HCV NS3-4A protease assay; conditions: strain HCV-1, fluorogenic peptide substrate, read-out: Protease assay Ex. 12 IC50
property_measured: pIC50
Scale note: pIC50 = -log10(concentration in M).

Could you share which pIC50 value was measured for CC[C@@H]1C[C@]1(NC(=O)[C@@H]1C[C@@]2(CN1C(=O)[C@@H](NC(=O)[C@@H](NC(=O)[C@@H]1CCCCN1CC)C1CCCCC1)C(C)(C)C)C(C)(C)C21CCC1)C(=O)NS(=O)(=O)N(CC)CC ?
8.35

Could you share which pIC50 value was measured for C=C[C@@H]1C[C@]1(NC(=O)[C@@H]1C[C@@]2(CN1C(=O)[C@@H](NC(=O)[C@@H](NC(=O)[C@@H]1CCCCN1C(C)C)C1CCOCC1)C1(C)CCOCC1)C(C)(C)C21CCC1)C(=O)NS(=O)(=O)N1CCCC1 ?
8.40

Could you share which pIC50 value was measured for C=C[C@@H]1C[C@]1(NC(=O)[C@@H]1C[C@@]2(CN1C(=O)[C@@H](NC(=O)[C@@H](NC(=O)C(C)(C)N1CCCCC1)C(C)(C)C)C(C)(C)C)C(C)(C)C21CCC1)C(=O)NS(=O)(=O)N1CCCC1 ?
7.19

Could you share which pIC50 value was measured for C=C[C@@H]1C[C@]1(NC(=O)[C@@H]1C[C@@]2(CN1C(=O)[C@@H](NC(=O)[C@@H](NC(=O)[C@H]1CCCCN1CC)C1CCCCC1)C(C)(C)C)C(C)(C)C21CCC1)C(=O)NS(=O)(=O)N1CCCC1 ?
8.46

* * *

molecular target: HCV NS3-4A serine protease (full-length NS3-4A protein) (Hepatitis C virus genotype 1a (isolate 1) (HCV), UniProt P26664); experiment: HCV NS3-4A protease assay; conditions: strain HCV-1, fluorogenic peptide substrate, read-out: Protease assay Ex. 12 IC50
Sequence (P26664 1027-1657): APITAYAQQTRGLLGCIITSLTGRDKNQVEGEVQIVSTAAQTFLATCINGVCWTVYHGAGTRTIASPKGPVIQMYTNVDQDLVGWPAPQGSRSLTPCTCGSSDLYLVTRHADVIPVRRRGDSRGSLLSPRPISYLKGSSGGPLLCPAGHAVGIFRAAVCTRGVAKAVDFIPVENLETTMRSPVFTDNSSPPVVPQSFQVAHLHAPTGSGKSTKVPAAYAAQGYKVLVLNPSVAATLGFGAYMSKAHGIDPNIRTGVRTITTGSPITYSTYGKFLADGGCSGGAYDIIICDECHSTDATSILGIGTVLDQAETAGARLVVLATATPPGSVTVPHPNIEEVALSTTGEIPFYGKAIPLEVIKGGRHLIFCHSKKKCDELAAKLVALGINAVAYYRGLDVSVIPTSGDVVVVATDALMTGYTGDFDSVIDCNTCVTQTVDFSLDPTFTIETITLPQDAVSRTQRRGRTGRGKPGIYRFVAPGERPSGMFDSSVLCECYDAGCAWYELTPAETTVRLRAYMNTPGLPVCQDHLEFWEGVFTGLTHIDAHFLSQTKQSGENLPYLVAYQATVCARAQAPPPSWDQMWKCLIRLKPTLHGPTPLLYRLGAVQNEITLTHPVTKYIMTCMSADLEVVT
Sequence (P26664 1658-1711 partner): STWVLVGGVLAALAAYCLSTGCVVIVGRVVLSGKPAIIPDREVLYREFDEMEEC
Reported pIC50 by item:
Scale note: pIC50 = -log10(concentration in M).

Look over these answered cases.
* C=C[C@@H]1C[C@]1(NC(=O)[C@@H]1C[C@@]2(CN1C(=O)[C@@H](NC(=O)[C@@H](NC(=O)[C@@H]1CCCCN1C(C)C)C1CCCCC1)C(C)(C)C)C(C)(C)C21CCC1)C(=O)NS(=O)(=O)NC1CCC1 | 8.19
* C=C[C@@H]1C[C@]1(NC(=O)[C@@H]1C[C@@]2(CN1C(=O)[C@@H](NC(=O)[C@@H](NC(=O)[C@H]1CCCCN1C(C)C)C1CCCCC1)C(C)(C)C)C(C)(C)C21CCC1)C(=O)NS(=O)(=O)N(CC)CCC | 8.46
* C=C[C@@H]1C[C@]1(NC(=O)[C@@H]1C[C@@]2(CN1C(=O)[C@@H](NC(=O)[C@@H](NC(=O)[C@@H]1CCCN1CC)C1(C)CCCCC1)C1(C)CCOCC1)C(C)(C)C21CCC1)C(=O)NS(=O)(=O)N1CCCC1 | 8.52
* C=C[C@@H]1C[C@]1(NC(=O)[C@@H]1C[C@@]2(CN1C(=O)[C@@H](NC(=O)[C@@H](NC(=O)[C@@H]1CCCCN1C(C)C)C(C)(C)C)C(C)(C)C)C(C)(C)C21CCC1)C(=O)NS(=O)(=O)N1CCOCC1 | 7.35
* C=C[C@@H]1C[C@]1(NC(=O)[C@@H]1C[C@@]2(CN1C(=O)[C@@H](NC(=O)[C@@H](NC(=O)[C@@H]1CCCN1CC)C1CCCC1)C(C)(C)C)C(C)(C)C21CCC1)C(=O)NS(=O)(=O)N(CC)CC | 8.00
* C=C[C@@H]1C[C@]1(NC(=O)[C@@H]1C[C@@]2(CN1C(=O)[C@@H](NC(=O)[C@@H](N1CCCC1=O)C(C)(C)C)C(C)(C)C)C(C)(C)C21CCC1)C(=O)NS(=O)(=O)N1CCCC1 | 7.00
* C=C[C@@H]1C[C@]1(NC(=O)[C@@H]1C[C@@]2(CN1C(=O)[C@@H](NC(=O)[C@@H](NC(=O)C1CCN(C(C)=O)CC1)C1CCCCC1)C(C)(C)C)C(C)(C)C21CCC1)C(=O)NS(=O)(=O)N1CCCC1 | 8.00
* C=C[C@@H]1C[C@]1(NC(=O)[C@@H]1C[C@@]2(CN1C(=O)[C@@H](NC(=O)[C@@H](NC(=O)CN1CCN(C)CC1)C1CCCCC1)C(C)(C)C)C(C)(C)C21CCC1)C(=O)NS(=O)(=O)N1CCCC1 | 7.70
* C=C[C@@H]1C[C@]1(NC(=O)[C@@H]1C[C@@]2(CN1C(=O)[C@@H](NC(=O)[C@@H](NC(=O)c1cnccn1)C1CCCCC1)C(C)(C)C)C(C)(C)C21CCC1)C(=O)NS(=O)(=O)NC1CC1 | 8.21
* C=C[C@@H]1C[C@]1(NC(=O)[C@@H]1C[C@@]2(CN1C(=O)[C@@H](NC(=O)[C@@H](NC(=O)[C@@H]1CCCN1CC)C1CCCCC1)C1CCOCC1)C(C)(C)C21CCC1)C(=O)NS(=O)(=O)N(CC)CC | 8.15

Let us move to another entry and its pIC50.
Could you share which pIC50 value was measured for [2H]C([2H])([2H])C([2H])([2H])N1CCC[C@H]1C(=O)NC(C(=O)N[C@H](C(=O)N1C[C@]2(C[C@H]1C(=O)N[C@]1(C(=O)NS(=O)(=O)N3CCCC3)C[C@H]1C=C)C(C)(C)C21CCC1)C(C)(C)C)C1CCCCC1 (some centres unmarked) ?
8.52
